target: human plasma protein factor Xa (Homo sapiens, UniProt P00742); construct: The human plasma protein factor Xa was purchased from Haematologic Technologies; experiment: Factor Xa IC50 determination, cleavage of paranitroanilide substrate S-2765; settings: factor Xa 1 nM, S2765 100 μM, Tris buffered saline pH 7.4, 5% DMSO
Sequence (P00742 235-488 limits assumed): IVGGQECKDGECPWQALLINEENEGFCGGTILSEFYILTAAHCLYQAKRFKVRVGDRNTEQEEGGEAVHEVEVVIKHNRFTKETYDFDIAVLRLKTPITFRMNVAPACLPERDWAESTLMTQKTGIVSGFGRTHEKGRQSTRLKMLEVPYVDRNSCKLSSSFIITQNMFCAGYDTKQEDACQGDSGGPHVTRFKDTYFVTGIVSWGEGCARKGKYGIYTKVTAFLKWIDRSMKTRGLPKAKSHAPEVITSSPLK
Sequence (P00742 41-179 partner limits assumed): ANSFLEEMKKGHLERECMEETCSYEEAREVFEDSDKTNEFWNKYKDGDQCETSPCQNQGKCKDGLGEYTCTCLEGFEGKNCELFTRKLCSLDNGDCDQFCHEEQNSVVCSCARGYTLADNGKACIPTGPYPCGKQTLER
pIC50: −log10 of the molar value.
measure: pIC50

Entry under test: C[S+]([O-])c1nc(CNC(=O)c2ccc(Cl)s2)cn1-c1ccc(-n2cc(F)ccc2=O)cc1 (stereo not drawn) . Its pIC50 was ≥ 7.00

Entry under test: `CCN1CCN(c2ccc(-n3cnc(CNC(=O)c4ccc(Cl)s4)c3)cc2)C(=O)C1=O` . Its pIC50 was ≤ 6.30

C[S+]([O-])c1cc(-n2ccccc2=O)ccc1-n1cnc(CNC(=O)c2ccc(Cl)s2)c1 (stereo not drawn) has a reported pIC50 of ≥ 7.00

Memo: `CS(=O)(=O)c1nc(CNC(=O)c2ccc(Cl)s2)cn1-c1ccc(-n2cccc(F)c2=O)cc1` , reported pIC50: ≥ 7.00

Kindly note the recorded pIC50 for `Cc1ccc(=O)n(-c2ccc(-n3cnc(CNC(=O)c4ccc(Cl)s4)c3)cc2)c1` , which is ≥ 7.00

Proceed to the following item.
// pIC50 lookup, compound = `CSc1nc(CNC(=O)c2ccc(Cl)s2)cn1-c1ccc(-n2ccccc2=O)cc1` , result: ≥ 7.00

Cited source for all entries: patent US8063077B2
